- System: K86415-001-R-J1-PDC complex spheroids, viability;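 further: spheroids exposed to agents for seven days before readout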
- assay-protocol: Anticancer human tumor K86415-001-R-J1-PDC patient-derived lung adenocarcinoma cell line growth inhibition [RAS]; active means viability on the fitted dose curve at most 10% of control; inactive means the rest
- test-parameters: second compound 0.316 µM; first compound 1 µM
Outcomes: active, inactive

{"columns": ["compound", "cat"],
 "data": [
  ["CC(=O)OC12COC1CC(O)C1(C)C(=O)C(O)C3=C(C)C(OC(=O)C(O)C(NC(=O)OC(C)(C)C)c4ccccc4)CC(O)(C(OC(=O)c4ccccc4)C21)C3(C)C (stereo not given) + C#Cc1c(F)ccc2cc(O)cc(-c3ncc4c(N5CC6CCC(C5)N6)nc(OCC56CCCN5CC(F)C6)nc4c3F)c12", "inactive"],
  ["CC(Nc1ccc2c(c1)OCCn1cc(N3C(=O)OCC3C(F)F)nc1-2)C(N)=O (stereo not given) + C#Cc1c(F)ccc2cc(O)cc(-c3ncc4c(N5CC6CCC(C5)N6)nc(OCC56CCCN5CC(F)C6)nc4c3F)c12", "inactive"],
  ["CCN1CCN(Cc2ccc(Nc3ncc(F)c(-c4cc(F)c5nc(C)n(C(C)C)c5c4)n3)nc2)CC1 + C=CC(=O)N1CCN(c2nc(OCC3CCCN3C)nc3c(F)c(-c4nc(N)cc(C)c4C(F)(F)F)c(Cl)cc23)C(C)C1", "inactive"],
  ["Nc1ccn(C2OC(CO)C(O)C2(F)F)c(=O)n1 (stereo not given) + C#Cc1c(F)ccc2cc(O)cc(-c3ncc4c(N5CC6CCC(C5)N6)nc(OCC56CCCN5CC(F)C6)nc4c3F)c12", "inactive"],
  ["CC1(O)CCCC1n1c(=O)c(C(F)F)cc2cnc(NC3CCN(S(C)(=O)=O)CC3)nc21 (stereo not given) + C=CC(=O)N1CCN(c2nc(OCC3CCCN3C)nc3c(F)c(-c4nc(N)cc(C)c4C(F)(F)F)c(Cl)cc23)C(C)C1", "inactive"],
  ["Cc1nc(N2CCC3(CC2)COC(C)C3N)c(CO)nc1Sc1ccnc(N)c1Cl (stereo not given) + C=CC(=O)N1CCN(c2nc(OCC3CCCN3C)nc3c(F)c(-c4nc(N)cc(C)c4C(F)(F)F)c(Cl)cc23)C(C)C1", "active"],
  ["C[C@@H](NC(=O)c1ncnc(N)c1Cl)c1ncc(C(=O)Nc2cc(C(F)(F)F)c(Cl)cn2)s1 + C=CC(=O)N1CCN(c2nc(OCC3CCCN3C)nc3c(F)c(-c4nc(N)cc(C)c4C(F)(F)F)c(Cl)cc23)C(C)C1", "inactive"],
  ["C=CC(=O)Nc1cc(Nc2nccc(-c3cn(C)c4ccccc34)n2)c(OC)cc1N(C)CCN(C)C + C#Cc1c(F)ccc2cc(O)cc(-c3ncc4c(N5CC6CCC(C5)N6)nc(OCC56CCCN5CC(F)C6)nc4c3F)c12", "inactive"],
  ["Cc1nc(N2CCC3(CC2)COC(C)C3N)c(CO)nc1Sc1ccnc(N)c1Cl (stereo not given) + C#Cc1c(F)ccc2cc(O)cc(-c3ncc4c(N5CC6CCC(C5)N6)nc(OCC56CCCN5CC(F)C6)nc4c3F)c12", "inactive"],
  ["CC(C)NCC(C(=O)N1CCN(c2ncnc3c2C(C)CC3O)CC1)c1ccc(Cl)cc1 (stereo not given) + C#Cc1c(F)ccc2cc(O)cc(-c3ncc4c(N5CC6CCC(C5)N6)nc(OCC56CCCN5CC(F)C6)nc4c3F)c12", "inactive"]
]}
